# assay.method.text: chemical genetic growth profiling, strain panel (AID 1159580);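 further: tested at 20 µM; growth read once vehicle control cultures reached saturation at 30 °C; 1 = growth at the plate median or of vehicle wells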
# condition.context: S. cerevisiae deletion strains, growth OD, locus YOR270C, strain vph1
The campaign covered roughly 5,500 compounds. About 2,000 (36%) were called active. Another 18% or so got no clear call; they are omitted. No stated cut-off is given here; in the data, active means normalized growth mostly below about 0.91 (no sharp cut-off); inconclusive means no clear call, values can overlap the other calls; inactive means mostly above about 0.92. The list shows a part of the results.
Hi there, use one of these labels in your reply, thanks! YES for active, NO for inactive

compound	label.class
COc1ccc2c(c1)C1(C)CCC(=O)CC1CC2 (stereo not drawn)	NO
CC1(C)C2CC[C@]3(C)C(C(=O)C=C4[C@H]5C[C@@](C)(C(=O)O)CC[C@]5(C)CC[C@]43C)[C@@]2(C)CC[C@@H]1O (stereo partly drawn)	YES

Dear colleague, could you share the recorded outcome for CC[C@H]1OC(=O)C[C@@H](O)[C@H](C)[C@@H](O[C@@H]2O[C@H](C)[C@@H](O[C@H]3C[C@@](C)(O)[C@@H](O)[C@H](C)O3)[C@H](N(C)C)[C@H]2O)[C@@H](CC=O)C[C@@H](C)C(=O)/C=C/C(C)=C/[C@@H]1CO[C@@H]1O[C@H](C)[C@@H](O)[C@@H](OC)[C@H]1OC when you have a moment?
NO

----------
# assay.method.text: chemical genetic growth profiling, strain panel (AID 1159580)
# condition.context: S. cerevisiae deletion strains, growth OD, locus YJL168C, strain set2, active compounds read low
In all, about 5,500 compounds went through this assay and about 2,000 (36%) were called active. Not shown: some 18% with an inconclusive outcome. The list shows a part of the results.
endpoint.label: normalized growth
Could you keep your reply to the number by itself?

Examples from the recorded data:
compound	result
O=C(/C=C/C=C/c1ccc2c(c1)OCO2)N1CCCCC1	0.945
COc1cc(OC)c2c(c1)OC(c1ccc(OC)c(OC)c1)C(O)C2 (stereo not given)	1.01
O=C1C[C@@H](c2ccccc2)Oc2cc(O)cc(O)c21	0.961
NC(=O)N1c2ccccc2CC(=O)c2ccccc21	0.985
O=C1C[C@@H](c2ccc(O)cc2)Oc2cc(O)cc(O)c21	1.02

Per the records, this compound ( COc1ccc2cc1Oc1ccc(cc1)C[C@H]1c3cc(c(OC)cc3CCN1C)Oc1c(OC)c(OC)cc3c1[C@H](C2)N(C)CC3 ) has normalized growth equal to 1.01

----------
# assay.method.text: chemical genetic growth profiling, strain panel (AID 1159580)
# condition.context: S. cerevisiae deletion strains, growth OD, strain wtn01, active compounds read low
Screen size: about 5,500 compounds; about 2,000 (36%) were called active. Not shown: some 18% with an inconclusive outcome. The list shows a part of the results.
Define the label as Y when normalized growth is strictly less than 1 and as N in all remaining cases.

These recorded examples may help you get a feel for the data.
molecule	label.class
CC(C)=CCc1c(O)cc2oc(C)cc(=O)c2c1O	Y
COC(=O)COc1cc(Cl)c(Cl)cc1Cl	Y
COC(=O)C1[C@H]2C[C@H]3c4[nH]c5ccccc5c4CCN3C[C@@H]2CC[C@@H]1O (some centres undefined)	N
O[C@H]1C=C2CCN3Cc4cc5c(cc4C(C23)[C@@H]1O)OCO5 (some centres undefined)	Y
CN1CCc2cc3c(cc2C1O)OCO3 (centres undefined)	N

Please turn your attention to the following entry.
Quick check: does CC(=O)O[C@]1(C(C)=O)CCC2C3C[C@H](C)C4=CC(=O)CC[C@]4(C)C3CC[C@@]21C (some centres undefined) have normalized growth under 1?
Y

----------
# assay.method.text: chemical genetic growth profiling, strain panel (AID 1159580);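 further: tested at 20 µM; growth read once vehicle control cultures reached saturation at 30 °C; 1 = growth at the plate median or of vehicle wells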
# condition.context: S. cerevisiae deletion strains, growth OD, locus YGL173C, strain kem1, active compounds read low
Hit rate of the full screen: of about 5,500 compounds, about 2,000 (36%) were called active. Not shown: some 18% with an inconclusive outcome. The list shows a part of the results.
Measured normalized growth of individual entries

Per the records, this molecule ( C/C=C(/C(=C/C)c1ccc(O)cc1)c1ccc(O)cc1 ) has normalized growth equal to 0.927 (inactive)

Per the records, this molecule ( CC1(C)C2CC[C@]3(C)C(C(=O)C=C4[C@H]5C[C@@](C)(C(=O)O)CC[C@]5(C)CC[C@]43C)[C@@]2(C)CC[C@@H]1O (some centres undefined) ) has normalized growth equal to 0.999 (inactive)

Per the records, this molecule ( COc1cc(O)c2c(=O)cc(C)oc2c1CC=C(C)C ) has normalized growth equal to 0.982 (inactive)

Per the records, this molecule ( CC(C)[C@H](N)C(=O)OCCOCn1cnc2c(=O)[nH]c(N)nc21 ) has normalized growth equal to 1.01 (inactive)

Per the records, this molecule ( CCOC(=O)c1ncn2c1CN(C)C(=O)c1cc(F)ccc1-2 ) has normalized growth equal to 1.02 (inactive)

Per the records, this molecule ( Cc1cc(=O)c2c(O)c(C)c(O)cc2o1 ) has normalized growth equal to 1.02 (inactive)

Per the records, this molecule ( CC(=O)O[C@]1(C(C)=O)CCC2C3C=C(Cl)C4=CC(=O)CC[C@]4(C)C3CC[C@@]21C (some centres undefined) ) has normalized growth equal to 1.03 (inactive)

Per the records, this molecule ( O=c1ccc2ccccc2o1 ) has normalized growth equal to 0.973 (inactive)

Per the records, this molecule ( C=CC1=C(C(=O)O)N2C(=O)[C@@H](NC(=O)/C(=N/O)c3csc(N)n3)[C@H]2SC1 ) has normalized growth equal to 1.04 (inactive)

Per the records, this molecule ( COc1c(O)cc2oc3cc(O)c(CC=C(C)C)c(O)c3c(=O)c2c1CC=C(C)C ) has normalized growth equal to 0.979 (inactive)

Per the records, this molecule ( COc1ccc(-c2coc3c(OC)c(OC)cc(O)c3c2=O)cc1 ) has normalized growth equal to 1 (inactive)

Per the records, this molecule ( Cc1ccc(O)cc1 ) has normalized growth equal to 1.04 (inactive)

Per the records, this molecule ( CC[C@H]1OC(=O)C[C@@H](O)[C@H](C)[C@@H](O[C@@H]2O[C@H](C)[C@@H](O[C@H]3C[C@@](C)(O)[C@@H](O)[C@H](C)O3)[C@H](N(C)C)[C@H]2O)[C@@H](CC=O)C[C@@H](C)C(=O)/C=C/C(C)=C/[C@@H]1CO[C@@H]1O[C@H](C)[C@@H](O)[C@@H](OC)[C@H]1OC ) has normalized growth equal to 0.986 (inactive)

Per the records, this molecule ( CCCCCC(=O)O[C@]1(C(C)=O)CCC2C3CCC4=CC(=O)CC[C@]4(C)C3CC[C@@]21C (some centres undefined) ) has normalized growth equal to 1.01 (inactive)

----------
# assay.method.text: chemical genetic growth profiling, strain panel (AID 1159580);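 further: tested at 20 µM; growth read once vehicle control cultures reached saturation at 30 °C; 1 = growth at the plate median or of vehicle wells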
# condition.context: S. cerevisiae deletion strains, growth OD, locus YIL125W, strain kgd1, active compounds read low
Screen size: about 5,500 compounds; about 2,000 (36%) were called active. Roughly 18% stayed inconclusive and do not appear here. Some of the results follow.
endpoint.label: normalized growth

Examples from the recorded data:
molecule	normalized growth
CC(C)=CCc1c(O)cc(C)oc1=O	0.981 (inactive)
COc1cc(OC)c2c(c1)OC(c1ccc(OC)c(OC)c1)C(O)C2 (stereo not given)	1.02 (inactive)
CC1(O)/C=C/C=C(\CO)C2CC(C)(C)C2(O)CC1 (stereo not given)	0.998 (inactive)
CN1C2CC3C[C@H]1C(O3)C2O (stereo not given in full)	1.02 (inactive)

Next item in the queue.
Per the records, this molecule ( OCCN(CCO)c1nc(N2CCCCC2)c2nc(N(CCO)CCO)nc(N3CCCCC3)c2n1 ) has normalized growth equal to 1 (inactive)

----------
Measured normalized growth of individual entries
# assay.method.text: chemical genetic growth profiling, strain panel (AID 1159580);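 further: tested at 20 µM; growth read once vehicle control cultures reached saturation at 30 °C; 1 = growth at the plate median or of vehicle wells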
# condition.context: S. cerevisiae deletion strains, growth OD, locus YJL134W, strain LCB3, active compounds read low
Screen size: about 5,500 compounds; about 2,000 (36%) were called active. About 18% were inconclusive and are not listed. This is one part of the list.
Could you keep your reply to the number by itself?

Examples from the recorded data:
compound	result
CC(=O)O[C@]1(C(C)=O)CCC2C3C[C@H](C)C4=CC(=O)CC[C@]4(C)C3CC[C@@]21C (stereo not given in full)	0.993
COc1ccc(C(=O)c2ccccc2O)c(O)c1	0.953
Oc1c(Cl)c(Cl)c(Cl)c(Cl)c1Cl	0.835

Per the records, this compound ( Cc1ccc(O)cc1 ) has normalized growth equal to 1.02

Per the records, this compound ( COC(=O)COc1cc(Cl)c(Cl)cc1Cl ) has normalized growth equal to 0.974

Per the records, this compound ( O=c1ccc2ccccc2o1 ) has normalized growth equal to 1.01

Per the records, this compound ( N=c1nc(N2CCCCC2)cc(N)n1O ) has normalized growth equal to 0.978

Per the records, this compound ( CC(=O)O[C@@](C)(CCC=C(C)C)C1CC=C(C)CC1 (stereo not given in full) ) has normalized growth equal to 1.01

Data origin, for the record: PubChem BioAssay AID1159580
